System: Escherichia coli TOP10;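 further: peptides expressed intracellularly from a pBAD plasmid library in pooled LB shake-flask culture, induced with 0.3% L-arabinose, DNA abundance read by NGS, three biological replicates, DESeq2 with apeglm shrinkage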
TEST_SUMMARY: shrunken log2 fold change of peptide-encoding DNA abundance (4.5 h post-induction vs induction); higher = less antimicrobial activity (less host growth inhibition)
CONDITION_INFO: time post-induction: 4.5 h; library: site-saturation at positions 5, 18, 19, 20
REPORTED_PROPERTY: shrunken log2 fold change
Write the number on its own, no unit after it.

biopolymer_sequence=RRIRLRPPRLPRPRPRPVNPPRP test_value=0.0818
biopolymer_sequence=RRIRQRPPRLPRPRPRPISKPRP test_value=-0.0725
biopolymer_sequence=RRIRHRPPRLPRPRPRPLAYPRP test_value=-0.351
biopolymer_sequence=RRIRSRPPRLPRPRPRPMWPPRP test_value=0.447
biopolymer_sequence=RRIRARPPRLPRPRPRPWQSPRP test_value=0.183

Q: Request the reported shrunken log2 fold change associated with RRIRRRPPRLPRPRPRPLLNPRP
Ans: -0.00444

Q: # get_value(readout='shrunken log2 fold change', item= RRIRIRPPRLPRPRPRPTGEPRP )
Ans: 0.00229

Q: For RRIRWRPPRLPRPRPRPWGIPRP , what is its reported shrunken log2 fold change?
Ans: 0.0114

Q: # input sequence: RRIRRRPPRLPRPRPRPEKVPRP ; wanted: its shrunken log2 fold change
Ans: 0.448

Q: Quick check: shrunken log2 fold change of RRIRWRPPRLPRPRPRPTSAPRP ?
Ans: 0.389

Q: Request the reported shrunken log2 fold change associated with RRIRLRPPRLPRPRPRPLQAPRP
Ans: 0.128

Q: What shrunken log2 fold change value was documented for this sequence, RRIRNRPPRLPRPRPRPGQAPRP ?
Ans: 0.0345

Q: Entry under review: RRIRWRPPRLPRPRPRPSIMPRP . Reported shrunken log2 fold change?
Ans: -0.0893

Q: Which shrunken log2 fold change is listed for RRIRERPPRLPRPRPRPKWKPRP ?
Ans: -0.0193

Q: May I ask what shrunken log2 fold change has been recorded for RRIRNRPPRLPRPRPRPEIPPRP ?
Ans: -0.113

Hello, the source for this data is the supplement of paper PMC9112550, in case you need it.
